Target sequence: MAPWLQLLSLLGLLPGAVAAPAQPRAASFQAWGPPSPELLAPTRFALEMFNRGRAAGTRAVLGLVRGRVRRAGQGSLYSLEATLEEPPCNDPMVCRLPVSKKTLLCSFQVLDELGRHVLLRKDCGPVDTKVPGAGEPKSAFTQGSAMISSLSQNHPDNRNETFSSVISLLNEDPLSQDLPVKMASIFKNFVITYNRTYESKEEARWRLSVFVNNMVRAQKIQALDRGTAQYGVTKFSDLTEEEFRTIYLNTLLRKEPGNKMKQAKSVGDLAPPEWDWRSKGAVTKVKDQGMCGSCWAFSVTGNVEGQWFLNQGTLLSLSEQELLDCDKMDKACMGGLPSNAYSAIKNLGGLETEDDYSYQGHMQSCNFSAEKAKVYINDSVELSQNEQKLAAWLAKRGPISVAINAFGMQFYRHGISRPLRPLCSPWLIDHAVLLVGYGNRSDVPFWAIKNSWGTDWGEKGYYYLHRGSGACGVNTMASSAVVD
pIC50: −log10 of the molar value.
PARAMETER_MEASURED: pIC50

Task: Report pIC50 for `CS(=O)(=O)N1CCc2c(c(-c3ccc(Cl)c(C#Cc4ccc(Cl)cc4)c3)nn2CCCN2CCOCC2)C1` please.
Result: < 4.70

* * *

- TEST_NAME: Half life in Sprague-Dawley rat at 2 mg/kg, iv
- Format: ADME, organism-based
- Set-up: dose 2 mg/kg, route intravenous
- CONDITIONS: in vivo
PARAMETER_MEASURED: half-life

Task: Data request, read-out half-life, for `CS(=O)(=O)N1CCc2c(c(-c3ccc(Cl)c(C#Cc4ccc(Cl)cc4)c3)nn2CCCN2CCOCC2)C1`
Result: 2 h

* * *

- TEST_NAME: Clearance in Sprague-Dawley rat at 2 mg/kg, iv
- Type: ADME, organism-based
- Parameters: dose 2 mg/kg, route intravenous
- CONDITIONS: in vivo
PARAMETER_MEASURED: clearance (mL/min)
The figure you give is taken to be in mL/min; do not add the unit.

Task: Name the reported clearance value associated with the molecule `CS(=O)(=O)N1CCc2c(c(-c3ccc(Cl)c(C#Cc4ccc(Cl)cc4)c3)nn2CCCN2CCOCC2)C1`
Result: 3

* * *

- STUDY_SYSTEM: Cathepsin S (Mus musculus, UniProt O70370)
- Sequence (O70370 whole entry): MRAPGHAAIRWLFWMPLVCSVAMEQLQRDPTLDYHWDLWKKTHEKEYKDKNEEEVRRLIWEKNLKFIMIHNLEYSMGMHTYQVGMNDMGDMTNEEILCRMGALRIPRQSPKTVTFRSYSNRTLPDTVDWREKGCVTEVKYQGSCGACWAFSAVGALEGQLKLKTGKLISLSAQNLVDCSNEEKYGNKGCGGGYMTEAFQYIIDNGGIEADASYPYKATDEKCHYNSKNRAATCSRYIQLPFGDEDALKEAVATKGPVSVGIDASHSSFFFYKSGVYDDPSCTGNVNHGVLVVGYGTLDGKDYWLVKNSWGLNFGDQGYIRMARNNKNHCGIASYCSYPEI
PARAMETER_MEASURED: pIC50
When answering, recall that pIC50 equals minus log10 of the concentration in mol/L, and write that number alone.

Task: Hello, I am looking for reported pIC50 with Cathepsin S (Mus musculus, UniProt O70370) for `CS(=O)(=O)N1CCc2c(c(-c3ccc(Cl)c(C#Cc4ccc(Cl)cc4)c3)nn2CCCN2CCOCC2)C1` . Could you help?
Result: 6.16
